Origin of values: PubChem BioAssay AID602393

- ASSAY DETAILS: Bmi1 luciferase reporter increase in mESCs, primary screen, esBAF inhibitor project, mouse ES cells, Bmi1 luciferase knock-in, single point (AID 602393);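 further: 0% = median of the plate's neutral control wells and 100% = double that signal; a rise in the Bmi1 reporter signal indicates esBAF inhibition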
- CONDITION PARAMETERS: 24 h, at 12.5 µM, stronger effect = higher value, 100% = twice the neutral-well signal
Screen size: about 350,000 compounds; about 7,000 (2%) were called active. What follows is part of a selection rich in actives, with near analogues and random picks from the rest.
For each of the compounds below, state its reporter increase.
Dear colleague, please return just the value in %, with no unit written.

Fill in: reporter increase of `O=C(CSC1=NCCS1)Nc1nc(-c2ccccc2)cs1` is ___ 5.05

Fill in: reporter increase of `O=C(Nc1ccc2c(c1)OCO2)N[C@@H]1CC[C@H](CC(=O)N2CCN(c3ccccc3)CC2)O[C@@H]1CO` is ___ -0.613

Fill in: reporter increase of `CC(=O)c1ccc(NC(=O)c2sc3nc4n(c(=O)c3c2C)CCCCC4)cc1` is ___ 56.1

Fill in: reporter increase of `O=C(C[C@H]1C=C[C@@H](NC(=O)C2CC2)[C@H](CO)O1)NCC1CC1` is ___ -2.61

Fill in: reporter increase of `COc1cccc(C(=O)Nc2ccc3nc4n(c(=O)c3c2)CCCCC4)c1` is ___ 38.2

Fill in: reporter increase of CC=Cc1ccc2n(c1=O)C[C@H]1[C@H](CO)[C@@H](C(=O)NC3CCCC3)N(Cc3ccncc3)[C@@H]21 (mixture of isomers) is ___ -6.02

Fill in: reporter increase of `O=C(CN1CCOCC1)N[C@@H]1CC[C@@H](CCNC(=O)C2CCCCC2)O[C@@H]1CO` is ___ 0.276

Fill in: reporter increase of `COc1ccc(CN(C)C[C@H]2OCCCC[C@@H](C)Oc3ccc(NS(C)(=O)=O)cc3C(=O)N([C@@H](C)CO)C[C@H]2C)cc1` is ___ -3.35

Fill in: reporter increase of CC1CCCC(C)N1C(=O)CN1CCN(c2nc(-c3ccc(F)cc3)cs2)CC1 (configuration not stated) is ___ 7.37

Fill in: reporter increase of `Cc1ccc(S(=O)(=O)N[C@@H]2CC[C@H](CCNC(=O)C3CCOCC3)O[C@@H]2CO)cc1` is ___ 3.97

Fill in: reporter increase of `CO[C@@H]1CN(C)C(=O)c2cc(NS(=O)(=O)Cc3ccccc3)ccc2OC[C@H](C)NC[C@H]1C` is ___ -0.575

Fill in: reporter increase of `CO[C@@H]1CN(C)C(=O)c2cc(NC(=O)c3ccc4c(c3)OCO4)ccc2OC[C@H](C)N(CCC(F)(F)F)C[C@H]1C` is ___ 1.54

Fill in: reporter increase of `Cc1cccc(CN(C)C[C@@H]2OCc3cn(nn3)CCCC(=O)N([C@@H](C)CO)C[C@H]2C)c1` is ___ -0.643

Fill in: reporter increase of CC(NC(=O)COc1cccnc1[N+](=O)[O-])c1ccc(Cl)cc1Cl (configuration not stated) is ___ 0.51

Fill in: reporter increase of `C/C=C/c1cnc2c(c1)C(=O)N([C@H](C)CO)C[C@@H](C)[C@H](CN(C)Cc1cccc(C(=O)O)c1)O2` is ___ -4.01

Fill in: reporter increase of `O=C(C[C@H]1C=C[C@@H](NC(=O)CC2CC2)[C@H](CO)O1)NCc1ccc(-c2ccccc2)cc1` is ___ 1.19

Fill in: reporter increase of `CO[C@@H]1CN(C)C(=O)c2ccc(NS(=O)(=O)c3ccc(C)cc3)cc2OC[C@@H](C)N(Cc2nccs2)C[C@H]1C` is ___ -3.84
